Biological target: CFTR (Homo sapiens, UniProt P13569)
Sequence (P13569 whole entry): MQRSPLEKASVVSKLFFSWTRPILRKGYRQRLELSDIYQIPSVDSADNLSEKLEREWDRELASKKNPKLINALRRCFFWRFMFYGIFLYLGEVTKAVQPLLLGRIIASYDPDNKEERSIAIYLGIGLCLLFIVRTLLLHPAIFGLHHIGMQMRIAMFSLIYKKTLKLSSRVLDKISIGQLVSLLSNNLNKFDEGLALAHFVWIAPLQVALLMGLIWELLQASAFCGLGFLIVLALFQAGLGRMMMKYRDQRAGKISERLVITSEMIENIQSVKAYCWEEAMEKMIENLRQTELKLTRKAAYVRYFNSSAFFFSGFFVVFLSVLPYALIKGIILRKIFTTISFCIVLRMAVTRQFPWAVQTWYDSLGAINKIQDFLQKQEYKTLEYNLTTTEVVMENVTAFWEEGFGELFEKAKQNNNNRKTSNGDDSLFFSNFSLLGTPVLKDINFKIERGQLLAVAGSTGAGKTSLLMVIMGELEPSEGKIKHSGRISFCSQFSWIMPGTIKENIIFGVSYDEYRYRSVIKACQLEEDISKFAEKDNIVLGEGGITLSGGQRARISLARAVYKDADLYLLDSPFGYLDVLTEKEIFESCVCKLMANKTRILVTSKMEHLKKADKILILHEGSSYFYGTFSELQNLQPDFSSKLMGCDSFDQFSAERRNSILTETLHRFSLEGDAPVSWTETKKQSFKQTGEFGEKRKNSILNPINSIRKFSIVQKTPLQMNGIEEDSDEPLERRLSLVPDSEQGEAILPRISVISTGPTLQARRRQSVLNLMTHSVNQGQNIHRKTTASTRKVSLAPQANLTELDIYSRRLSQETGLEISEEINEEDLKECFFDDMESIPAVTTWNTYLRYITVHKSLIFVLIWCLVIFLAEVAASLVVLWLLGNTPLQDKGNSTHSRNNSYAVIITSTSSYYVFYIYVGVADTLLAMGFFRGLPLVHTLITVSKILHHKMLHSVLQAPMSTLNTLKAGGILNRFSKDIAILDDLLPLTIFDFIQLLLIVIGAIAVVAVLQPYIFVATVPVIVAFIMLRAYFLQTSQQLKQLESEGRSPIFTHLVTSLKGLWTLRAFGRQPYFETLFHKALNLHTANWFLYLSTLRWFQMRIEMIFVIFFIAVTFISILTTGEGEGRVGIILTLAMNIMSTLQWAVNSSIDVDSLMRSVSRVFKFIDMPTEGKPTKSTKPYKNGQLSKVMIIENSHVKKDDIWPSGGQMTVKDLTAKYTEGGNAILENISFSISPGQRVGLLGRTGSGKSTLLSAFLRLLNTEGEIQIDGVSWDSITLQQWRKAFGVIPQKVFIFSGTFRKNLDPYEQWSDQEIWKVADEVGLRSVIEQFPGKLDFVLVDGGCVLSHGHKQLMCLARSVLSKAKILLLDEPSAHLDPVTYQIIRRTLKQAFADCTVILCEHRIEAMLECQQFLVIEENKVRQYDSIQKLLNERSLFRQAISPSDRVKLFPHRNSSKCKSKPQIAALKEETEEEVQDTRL
Assay: clinical
Conditions: both, human, in vivo, po, 79 mg/kg
ENDPOINT LABEL: Cmax

{"MOLECULE": "O=C(O)O [bicarbonate, NaHCO3]", "ENDPOINT LABEL": "Cmax", "ASSAY VALUE": "45000 to 65000 µM"}

----------
Target: CFTR (homozygote mutation ΔF508) (Homo sapiens, UniProt P13569, DEL508-508)
Sequence (P13569 with tags, fused parts or gaps DEL508-508): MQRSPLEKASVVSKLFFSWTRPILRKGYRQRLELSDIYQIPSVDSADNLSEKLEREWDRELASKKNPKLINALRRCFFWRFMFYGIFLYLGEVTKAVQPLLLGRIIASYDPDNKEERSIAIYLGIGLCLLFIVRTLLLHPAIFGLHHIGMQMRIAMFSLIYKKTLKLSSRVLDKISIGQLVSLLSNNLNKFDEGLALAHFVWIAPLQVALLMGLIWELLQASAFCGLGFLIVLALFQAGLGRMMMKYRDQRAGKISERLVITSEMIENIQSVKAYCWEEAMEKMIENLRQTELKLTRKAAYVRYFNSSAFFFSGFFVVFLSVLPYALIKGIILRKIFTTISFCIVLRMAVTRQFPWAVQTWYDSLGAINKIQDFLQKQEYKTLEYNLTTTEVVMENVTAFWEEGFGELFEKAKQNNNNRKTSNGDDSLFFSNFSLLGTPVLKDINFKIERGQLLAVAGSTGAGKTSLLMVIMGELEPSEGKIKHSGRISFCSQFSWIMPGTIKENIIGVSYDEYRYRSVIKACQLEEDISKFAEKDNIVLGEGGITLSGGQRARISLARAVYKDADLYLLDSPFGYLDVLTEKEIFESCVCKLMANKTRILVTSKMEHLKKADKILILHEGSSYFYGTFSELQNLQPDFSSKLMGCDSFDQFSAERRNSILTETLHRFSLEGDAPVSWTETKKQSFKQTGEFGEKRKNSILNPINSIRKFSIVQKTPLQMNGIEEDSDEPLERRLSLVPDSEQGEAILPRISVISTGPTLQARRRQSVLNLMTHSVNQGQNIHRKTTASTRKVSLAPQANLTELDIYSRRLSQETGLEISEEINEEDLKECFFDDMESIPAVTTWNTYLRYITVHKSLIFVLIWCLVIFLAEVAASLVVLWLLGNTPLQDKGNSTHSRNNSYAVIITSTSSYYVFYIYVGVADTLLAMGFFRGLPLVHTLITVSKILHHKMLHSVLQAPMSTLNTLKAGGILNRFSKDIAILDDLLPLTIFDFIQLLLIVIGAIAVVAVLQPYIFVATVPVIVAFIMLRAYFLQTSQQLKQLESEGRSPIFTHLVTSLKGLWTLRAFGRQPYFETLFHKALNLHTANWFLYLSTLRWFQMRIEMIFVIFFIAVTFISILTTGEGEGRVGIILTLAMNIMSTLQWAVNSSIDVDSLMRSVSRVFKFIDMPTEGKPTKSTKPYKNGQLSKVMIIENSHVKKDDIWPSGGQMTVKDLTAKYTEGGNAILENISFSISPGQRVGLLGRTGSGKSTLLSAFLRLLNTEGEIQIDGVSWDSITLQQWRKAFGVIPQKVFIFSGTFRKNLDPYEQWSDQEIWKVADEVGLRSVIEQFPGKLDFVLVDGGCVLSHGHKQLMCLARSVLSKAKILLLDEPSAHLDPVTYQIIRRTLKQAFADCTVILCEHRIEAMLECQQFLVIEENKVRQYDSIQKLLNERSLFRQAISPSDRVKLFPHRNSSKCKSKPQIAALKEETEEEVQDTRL
Assay: CF urine test (oral bicarbonate gastric load) in adult CF patients, before and after CFTR modulator drug
Conditions: both, human, in vivo, po, 79 mg/kg BW
ENDPOINT LABEL: Tmax (h)

{"COMPOUND": "O=C(O)O [bicarbonate, NaHCO3]", "U": "h", "ASSAY VALUE": 2}

----------
Biological target: CFTR (homozygote mutation ΔF508) (Homo sapiens, UniProt P13569, DEL508-508)
Test: CF urine test (oral bicarbonate gastric load) in adult CF patients, before and after CFTR modulator drug
Conditions: both, human, in vivo, po, 79 mg/kg

{"MOLECULE": "O=C(O)O [bicarbonate, NaHCO3]", "Cmax": "14000 to 28000 µM"}

----------
Biological target: UniProt P13569
Assay: clinical
Settings: both, human, in vivo, po, 79 mg/kg
ENDPOINT LABEL: Tmax (h)

{"COMPOUND": "O=C(O)O [bicarbonate, NaHCO3]", "U": "h", "ASSAY VALUE": 2}

FYI, the data here is from patent US20220206013A1.
